system: HPPD polypeptides (wild-type SEQ ID NO:1 and mutants); settings: in the presence of mesotrione (MST), 60 μM inhibitor, high substrate concentration; kapp normalized to kapp without inhibitor
// reported Residual activity for each item listed
Write the value in % as a bare number.

Ask: // lookup Residual activity for 22 (protein, mutant HPPD polypeptide) MADLYENPMGLMGFEFIEFASPTPGTLEPIFEIMGFTKVATHRSKNVHLYRQGEINLILNNEPNSIASYFAAEHGPSVCGMAFRVKDSQKAYNRALELGAQPIHIDTGPMELNLPAIKGIGGAPLYLIDRFGEGSSIYDIDFVYLEGVERNPVGAGLKVIDHLTHNVYRGRMVYWANFYEKLFNFREARYFDIKGEYTGLTSKAMSAPDGMIRIPLNEESSKGAGQIEEFLMQFNGEGIQHVAFLTDDLVKTWDALKKIGMRFMTAPPDTYYEMLEGRLPDHGEPVDQLQARGILLDGSSVEGDKRLLLQIFSETLMGPVFFEFIQRKGDDGFGPHSFKVLFESIERDQVRRGVLTAD
Result: 77

Ask: For the molecule shown here, 7 (protein, mutant HPPD polypeptide) MADLYENPMGLMGFEFIEFASPTPGTLEPIFEIMGFTKVATHRSKNVHLYRQGEINLILNNEPNSIASYFAAEHGPSVCGMAFRVKDSQKAYNRALELGAQPIHIDTGPMELNLPAIKGIGGAPLYLIDRFGEGSSIYDIDFVYLEGVERNPVGAGLKVIDHLTHNVYRGRMVYWANFYEKLFNFREARYFDIKGEYTGLTSKAMSAPDGMIRIPLNEESSKGAGQIEEFLMQFNGEGIQHVAFLTDDLVKTWDALKKIGMRFMTAPPDTYYEMLEGRLPDHGEPVDQLQARGILLDGSSVEGDKRLLLQIFSETLMGPVFFEFIQRKGDDGFGPDSFKALFESIERDQVRRGVLTAD , give the reported Residual activity.
Result: 70

Ask: What does the data say about its Residual activity? Entry: 14 (protein, mutant HPPD polypeptide) MADLYENPMGLMGFEFIEFASPTPGTLEPIFEIMGFTKVATHRSKNVHLYRQGEINLILNNEPNSIASYFAAEHGPSVCGMAFRVKDSQKAYNRALELGAQPIHIDTGPMELNLPAIKGIGGAPLYLIDRFGEGSSIYDIDFVYLEGVERNPVGAGLKVIDHLTHNVYRGRMVYWANFYEKLFNFREARYFDIKGEYTGLTSKAMSAPDGMIRIPLNEESSKGAGQIEEFLMQFNGEGIQHVAFLTDDLVKTWDALKKIGMRFMTAPPDTYYEMLEGRLPDHGEPVDQLQARGILLDGSSVEGDKRLLLQIFSETLMGPVFFEFIQRKGHDGFGPDSFKVLFESVERDQVRRGVLTAD
Result: 70

Ask: Could you share which Residual activity value was measured for 8 (protein, mutant HPPD polypeptide) MADLYENPMGLMGFEFIEFASPTPGTLEPIFEIMGFTKVATHRSKNVHLYRQGEINLILNNEPNSIASYFAAEHGPSVCGMAFRVKDSQKAYNRALELGAQPIHIDTGPMELNLPAIKGIGGAPLYLIDRFGEGSSIYDIDFVYLEGVERNPVGAGLKVIDHLTHNVYRGRMVYWANFYEKLFNFREARYFDIKGEYTGLTSKAMSAPDGMIRIPLNEESSKGAGQIEEFLMQFNGEGIQHVAFLTDDLVKTWDALKKIGMRFMTAPPDTYYEMLEGRLPDHGEPVDQLQARGILLDGSSVEGDKRLLLQIFSETLMGPVFFEFIQRKGDDGFGPDSFKVLFESIERDQVRRGVLTAD ?
Result: 70

Just for reference, patent US10597674B2 is where these values come from.
